Target: HIV Env of isolate R2184.c04 (clade AE) (HIV)
Test: cell-based or functional assay
assay.readout: IC50 (µg/ml) with constrains
The reply must contain the numeric value and, after it, the unit.

Past entries and their recorded results:
| binder | IC50 (µg/ml) with constrains |
| --- | --- |
| ePGDM9 (antibody, V domains shown) VH: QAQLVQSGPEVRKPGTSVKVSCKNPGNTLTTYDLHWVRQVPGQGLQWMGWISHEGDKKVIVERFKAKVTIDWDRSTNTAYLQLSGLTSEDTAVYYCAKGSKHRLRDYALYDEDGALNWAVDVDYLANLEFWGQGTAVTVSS VL: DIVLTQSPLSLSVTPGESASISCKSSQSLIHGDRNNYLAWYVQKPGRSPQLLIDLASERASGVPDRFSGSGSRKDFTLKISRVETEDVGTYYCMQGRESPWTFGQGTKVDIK | 0.003 µg/mL |
| ePGDM13 (antibody, V domains shown) VH: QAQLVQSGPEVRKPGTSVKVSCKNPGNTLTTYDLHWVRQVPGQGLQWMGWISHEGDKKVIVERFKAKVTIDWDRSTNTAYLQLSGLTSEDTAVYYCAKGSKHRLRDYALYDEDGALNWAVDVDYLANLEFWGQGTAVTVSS VL: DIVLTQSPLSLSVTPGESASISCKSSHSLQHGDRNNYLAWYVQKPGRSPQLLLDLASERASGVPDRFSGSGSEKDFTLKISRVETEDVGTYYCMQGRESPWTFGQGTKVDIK | 0.005 µg/mL |
| ePGDM5 (antibody, V domains shown) VH: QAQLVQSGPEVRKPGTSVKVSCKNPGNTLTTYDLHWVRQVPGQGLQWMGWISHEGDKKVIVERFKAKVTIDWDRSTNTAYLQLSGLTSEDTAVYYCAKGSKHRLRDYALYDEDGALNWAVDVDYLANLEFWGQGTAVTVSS VL: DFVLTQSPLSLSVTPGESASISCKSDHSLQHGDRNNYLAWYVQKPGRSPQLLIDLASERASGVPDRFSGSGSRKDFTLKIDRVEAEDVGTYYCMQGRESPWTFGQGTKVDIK | 0.004 µg/mL |

Shift focus to the following entry.
Prompt: Read the entry PGDM1400 (antibody, V domains shown) VH: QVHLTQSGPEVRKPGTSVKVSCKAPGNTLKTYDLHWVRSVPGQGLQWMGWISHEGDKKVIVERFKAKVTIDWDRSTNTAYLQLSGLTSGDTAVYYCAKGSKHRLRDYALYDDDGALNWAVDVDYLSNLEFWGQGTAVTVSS VL: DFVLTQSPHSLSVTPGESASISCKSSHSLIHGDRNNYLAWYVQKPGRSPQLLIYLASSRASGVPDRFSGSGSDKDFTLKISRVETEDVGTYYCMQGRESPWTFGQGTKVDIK and write its reported IC50 (µg/ml) with constrains.
Response: 0.006 µg/mL
